Target: ER-α (Homo sapiens)
Construct: endogenous in cells; host or cells: MCF-7
Sequence (P03372 1-595): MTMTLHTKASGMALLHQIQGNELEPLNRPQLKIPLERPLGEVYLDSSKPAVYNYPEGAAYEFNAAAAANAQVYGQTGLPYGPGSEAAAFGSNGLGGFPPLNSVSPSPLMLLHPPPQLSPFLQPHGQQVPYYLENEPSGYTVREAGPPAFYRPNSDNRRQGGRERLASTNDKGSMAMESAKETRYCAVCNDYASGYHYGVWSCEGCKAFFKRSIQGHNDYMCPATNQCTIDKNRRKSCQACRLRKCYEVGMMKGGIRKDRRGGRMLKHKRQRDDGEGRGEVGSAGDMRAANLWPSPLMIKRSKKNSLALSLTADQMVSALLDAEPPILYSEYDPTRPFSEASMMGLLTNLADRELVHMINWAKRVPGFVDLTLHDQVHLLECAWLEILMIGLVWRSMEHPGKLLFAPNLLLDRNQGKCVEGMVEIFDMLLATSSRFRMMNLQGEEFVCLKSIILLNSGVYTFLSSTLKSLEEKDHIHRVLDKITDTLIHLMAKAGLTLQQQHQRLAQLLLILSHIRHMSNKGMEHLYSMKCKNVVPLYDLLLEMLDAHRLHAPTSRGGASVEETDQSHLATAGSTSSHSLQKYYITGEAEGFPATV
Assay: ER-α In Cell Western Assay (ER1D5)
Type: cell-based
Conditions: MCF7; MCF-7 cells, ER1D5 antibody, 4 or 24 hr post compound addition; read-out: ER In-Cell Western Assay (ER1D5); Max Response
Catalogue of Emax readings, one per entry.
PROPERTY_NAME: Emax

1. CC1=C(c2ccc(S(C)(=O)=O)cc2)C(c2ccc(OC[C@H](C)N3CC[C@@H](C)C3)cc2)Oc2ccc(O)cc21 (some centres unmarked): 40 to 65%
2. CC1=C(c2cccc(O)c2)C(c2ccc(OC[C@H](C)N3CCC[C@H]3C)cc2)Oc2ccc(O)cc21 (some centres unmarked): ≥ 65%
3. CC1=C(c2cccc(O)c2)C(c2ccc(OC[C@H](C)N3CCC(C)(C)C3)cc2)Oc2ccc(O)cc21 (some centres unmarked): ≥ 65%
4. CC1=C(c2ccc(F)cc2)C(c2ccc(OCCN3CCCC3)cc2)Oc2ccc(O)cc21 (centres unmarked): 40 to 65%
5. CC1=C(c2ccccc2C)C(c2ccc(OC[C@H](C)N3CC[C@@H](C)C3)cc2)Oc2ccc(O)cc21 (some centres unmarked): ≥ 65%
6. CC1=C(c2cccc(O)c2)C(c2ccc(OC[C@H](C)N3CCC[C@@H]3C)cc2)Oc2ccc(O)cc21 (some centres unmarked): 40 to 65%
7. C#Cc1ccc(C2=C(C)c3cc(O)ccc3OC2c2ccc(OC[C@H](C)N3CC[C@@H](C)C3)cc2)cc1 (some centres unmarked): ≥ 65%
8. CC1=C(c2cccc(O)c2)C(c2ccc(OCCN3CCC(C)CC3)cc2)Oc2ccc(O)cc21 (centres unmarked): 40 to 65%
9. CC1=C(c2cccc(O)c2)C(c2ccc(OC[C@H](C)N3CC[C@@H](C)C3)cc2)Oc2cc(O)ccc21 (some centres unmarked): ≥ 65%
10. CC1=C(c2ccc(C)c(O)c2)C(c2ccc(OC[C@H](C)N3CC[C@@H](C)C3)cc2)Oc2ccc(O)cc21 (some centres unmarked): ≥ 65%
11. CC1=C(c2cccc(O)c2)C(c2ccc(OC[C@@H](C)N3CC[C@H](C)C3)cc2)Oc2ccc(O)cc21 (some centres unmarked): < 40%
